System: OVCAR-5 ovarian
Experiment: NCI tumour cell line growth inhibition, 48 h
Readout kind: GI50

>>> df
                                   compound           target  readout_value
0  COc1ccc(C(=O)/C=C/c2ccc(/C=C/c3cc(OC)c(OC)c(OC)c3)cc2)cc1  OVCAR-5 ovarian        34.1 µM
1  CC(C)(C)C[C@H]1NC(C(=O)NCC[C@H](O)CO)[C@H](c2cccc(Cl)c2)[C@@]12C(=O)Nc1cc(Cl)c(F)cc12 (stereo partly specified)  OVCAR-5 ovarian        15.5 µM

Please report GI50 for every entry that follows.
1. COc1cc(Cl)cc(-c2nn(C(=O)NCCN3CCOCC3)cc2-c2ccncc2)c1
2. COc1cccc(/C=C/C(=O)c2cccc(Nc3nc(Nc4ccccc4)nc(Nc4ccccc4)n3)c2)c1
3. Cc1ccc2c(ccc3c[n+]4c5ccccc5ccc4n32)c1
4. COc1c(CCC[P+](c2ccccc2)(c2ccccc2)c2ccccc2)cc2c(c1OC)OCO2
5. CCN(CC)S(=O)(=O)c1ccc(OC)c(Nc2ncc(-c3ccccc3)o2)c1
6. Nc1ccn(Cc2ccc(C34CC5CC(CC(C5)C3)C4)c(O)c2)c(=O)n1
7. Cc1c(C(=O)/C=C/c2csc3ccccc23)[n+](=O)c2ccccc2n1[O-]

["37.8 µM", "26.8 µM", "4.42 µM", "2.74 µM", "> 21.7 µM", "> 100 µM", "1.47 µM"]

Parameters: items (list). Returns: GI50 for each item.
1. Cc1ccncc1.[O]=[Ge].[O]=[Ge].[O]=[Ge].[O]=[Ge].[O]=[Ge].[O]=[Ge][OH].[O]=[Ge][OH]
2. O=C([O-])c1ccccc1Nc1ccccn1.O=C([O-])c1ccccc1Nc1ccccn1.[Ni+2]

1. > 100 µM
2. 75.6 µM

* * *

Test system: SK-MEL-2 melanoma
Experiment: NCI tumour cell line growth inhibition, 48 h
Readout kind: TGI (µM)
Numbers only, in µM.

Check out these entries, answers already filled in.
Compound	Target	Readout kind	Unit name	Readout value
C=C1[C@@H](O)C[C@@]23CC[C@@H]4[C@@]5(C)CC[C@@H](OC(C)=O)C(C)(C)[C@@H]5C[C@@H](OC5OC(COC(C)=O)C(O)C(O)C5O)[C@@]4(C)C2=CC[C@H]3[C@H]1C (stereo not given in full)	SK-MEL-2 melanoma	TGI	µM	7.39
CNC(=O)n1ccc2cc(Oc3ccnc(NC(=O)c4ccc(C5CCN(CCO)CC5)cc4)c3)c(OCCOC)cc21	SK-MEL-2 melanoma	TGI	µM	23.2
COc1cc2c(cc1OC)C(N(C)C)C(c1ccccc1)=C2Cl (stereo not given)	SK-MEL-2 melanoma	TGI	µM	36
Nc1c2ccccc2nc2c1ccc1ncccc12	SK-MEL-2 melanoma	TGI	µM	42.1

// next entry
Value of measured TGI for the entry "CCCCN1CCN(c2ccc3nc(-c4ccc5nc(-c6ccc(C(F)(F)F)cc6)[nH]c5c4)[nH]c3c2)CC1" : 3.31

* * *

Tested on: HCT-15 colon
Assay: NCI tumour cell line growth inhibition, 48 h
Readout kind: GI50

Some entries whose results are on file:
In [3]: df
Out[3]:
                                   molecule  readout_value
0  CC(C)(C)C[C@H]1NC(C(=O)NCC[C@H](O)CO)[C@H](c2cccc(Cl)c2)[C@@]12C(=O)Nc1cc(Cl)c(F)cc12 (stereo not given in full)        17.8 µM
1  CCN1C(=O)N(CC)C2C1NN=c1s/c(=C\c3cccnc3)c(=O)n12 (stereo not given)       0.414 µM
2  CN(C)S(=O)(=O)c1ccc(NC(=O)COC(=O)c2ccc(S(=O)(=O)N3CCCCC3)cc2)cc1       > 100 µM
3  C[C@@H](C(=O)Nc1ccc(Cl)cc1)C1CCC(c2ccnc3ccc(F)cc23)CC1 (stereo not given in full)        8.32 µM

Input "COc1ccc2nc3cc([N+](=O)[O-])ccc3c(NCCCCCN(C)C)c2c1" . Output GI50: 1.31 µM
